# maps each entry to its RAM network inhibition
Test: RAM signaling pathway blockade in yeast – S. cerevisiae, Pdr1DBD-CYC8 efflux-inhibited sensitized strain, primary screen (AID 1298);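 further: 0% = DMSO untreated cells without growth and 100% = 10 µM 1-NA-PP1 full growth; higher means more yeast growth rescued from 5-FOA killing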
Conditions: S. cerevisiae cbk1-as DSE1-URA3 strain, 5-FOA growth OD615, 2 d; at 50 µM; active compounds read high
The reply should be a number in %, with the unit left off.

Worked examples follow.
Cc1ccc2oc(=O)c3cnn(CC(=O)N(CCC(C)C)Cc4ccco4)c3c2c1 = 5.23
O=C(COC(=O)c1cccs1)Nc1ccccc1 = 0.11
O=C(CSc1nc2c(cnn2-c2ccc(F)cc2)c(=O)[nH]1)N1CCCc2ccccc21 = 4.44

Please give the measured RAM network inhibition for this molecule: O=C(NCC1CCCO1)C1CC(=O)N(c2ccc(F)c(Cl)c2)C1 (stereo unspecified)
5.33

Quick one: RAM network inhibition for Cc1c(C(=O)NCc2ccc3c(c2)OCO3)sc2nc(-c3ccccc3)cn12 ?
6.39
